Consider the following compounds; for each one, report its melting point.

The examples below pair each entry with its known result.
| compound | melting point |
| --- | --- |
| Cc1cccc(C(=O)n2oc(=O)c(-c3ccc([N+](=O)[O-])cc3)c2C)c1 [Compound 7c] | 152 to 154 °C |
| Cc1cccc(C(=O)n2oc(=O)c(-c3ccc(NC(=O)C4CC4)cc3)c2C)c1 [Compound 7e] | 120 to 123 °C |
| Cc1cccc(C(=O)n2oc(=O)cc2-c2ccc([N+](=O)[O-])cc2)c1 [Compound 4s] | 177 to 180 °C (dec.) |

For every item in the list below, what is its measured melting point?
1. Cc1c(-c2ccccc2)c(=O)on1C(=O)c1ccc(NC(=O)C(C)(C)C)cc1 [Compound 4i]
2. Cc1c(-c2ccccc2)c(=O)on1C(=O)c1ccc(OC(=O)C(C)(C)C)cc1 [Compound 4l]
3. Cc1c(-c2ccccc2)c(=O)on1C(=O)c1cccc(C(F)(F)F)c1 [Compound 4e]
4. Cc1cccc(C(=O)Oc2onc(C)c2-c2ccc(C#N)cc2)c1 [Compound 8b]
5. CC(=O)Nc1ccc(-c2c(C)noc2OC(=O)c2cccc(C)c2)cc1 [Compound 8d]
6. CC(=O)Nc1ccc(-c2c(C)n(C(=O)c3cccc(C)c3)oc2=O)cc1 [Compound 7d]
7. Cc1ccccc1C(=O)n1oc(=O)c(-c2ccccc2)c1C [Compound 4d]

a:
1. 132 to 134 °C
2. 130 to 132 °C
3. 96 to 97 °C
4. 98 to 100 °C
5. 57 to 60 °C
6. 159 to 160 °C
7. 99 to 100 °C

For every item in the list below, what is its measured melting point?
1. Cc1cccc(C(=O)n2oc(=O)c(-c3ccc(C#N)cc3)c2C)c1 [Compound 7b]
2. Cc1cccc(C(=O)n2oc(=O)c(-c3ccccc3)c2C)c1 [Compound 4a]

a:
1: 108 to 110 °C; 2: 85 to 88 °C

For every item in the list below, what is its measured melting point?
1. Cc1c(-c2ccccc2)c(=O)on1C(=O)c1ccc(C#N)cc1 [Compound 4h]
2. Cc1cccc(C(=O)n2oc(=O)c(-c3ccccc3)c2-c2ccccc2)c1 [Compound 4m]
3. Cc1c(-c2ccccc2)c(=O)on1C(=O)C1CC1 [Compound 4b]
4. Cc1ccc(C(=O)n2oc(=O)c(-c3ccccc3)c2C)cc1 [Compound 4c]
5. Cc1c(-c2ccccc2)c(=O)on1C(=O)c1cccc(S(C)(=O)=O)c1 [Compound 4f]

a:
178 to 180 °C (dec.)
160 to 163 °C
83 to 86 °C
134 to 136 °C
185 to 186 °C

q: Fill blank: measured melting point of the compound Cc1cccc(C(=O)Oc2onc(C)c2-c2ccc(NC(=O)C3CC3)cc2)c1 [Compound 8e] is ____.
a: 80 to 82 °C
